target: Platelet-activating factor receptor (Canis lupus familiaris); experiment: Inhibition of [3H]PAF binding to dog platelets.
Recorded metric: IC50
Write down the value, and be sure its unit follows.

>>> df
                                   compound  observed_value
0  COc1ccc(C(=C/C=C/C(=O)NCCOCc2cccnc2)c2ccc(OC)cc2)cc1          250 nM
1  CCCCCCCC/C(=C\C=C\C(=O)N[C@H](C)CCCc1cccnc1)c1ccc(OC)cc1            5 nM

Dear colleague, could you please provide IC50 for the compounds listed below?
1. CC/C(=C\C=C\C(=O)N[C@H](C)CCCc1cccnc1)c1ccc(OC)cc1
2. O=C(/C=C/C=C(c1ccc(Cl)cc1)c1ccc(Cl)cc1)NCCCCc1cccnc1

RESULT:
["30 nM", "60 nM"]

Dear colleague, could you please provide IC50 for the compounds listed below?
1. COc1cccc(/C(=C/C=C/C(=O)NCCCCc2cccnc2)c2cccc(F)c2)c1
2. CC[C@@H](CCCc1cccnc1)NC(=O)/C=C/C=C(c1ccc(OC)cc1)c1ccc(OC)cc1

RESULT:
1. 40 nM
2. 400 nM

Dear colleague, could you please provide IC50 for the compounds listed below?
1. COc1ccc(/C(=C/C=C/C(=O)N[C@H](C)CCCc2cccnc2)C(C)C)cc1
2. COc1ccc(/C(C)=C/C=C/C(=O)N[C@H](C)CCCc2cccnc2)cc1
3. COc1cccc(C(=C/C=C/C(=O)N[C@@H](C)CCCc2cccnc2)c2cccc(OC)c2)c1

RESULT:
1. 40 nM
2. 25 nM
3. 300 nM

Dear colleague, could you please provide IC50 for the compounds listed below?
1. COc1ccc(C(=C/C=C/C(=O)NC(C)CCCc2cccnc2C)c2ccc(OC)cc2)cc1 (stereo unspecified)
2. COc1ccc(/C(=C\C=C\C(=O)N[C@H](C)CCCc2cccnc2)c2ccccc2)cc1

RESULT:
1: 30 nM; 2: 4 nM

----------
Would you kindly list pIC50 for each of these compounds?
biological target: Platelet-activating factor receptor (Canis lupus familiaris); assay: Inhibition of [3H]PAF binding to dog platelets.
Numbers only, as −log10 of the molar value.

For orientation, consider the following solved cases.
                                smiles_repr  recorded_metric  observed_value
0  COc1ccc(C(=C/C=C/C(=O)NCCCCc2cccnc2)c2ccc(OC)cc2)cc1            pIC50            7.60
1  O=C(/C=C\C=C(c1ccccc1)c1ccccc1)NCCCCc1cccnc1            pIC50            6.40
2  O=C(C/C=C/C=C(c1ccccc1)c1ccccc1)NCCCCc1cccnc1            pIC50            7.26
3  COc1ccc(C(=C/C=C/C(=O)NCCCCc2cccnc2)c2ccc(OC)c(OC)c2)cc1OC            pIC50            7.26
4  COc1ccc(C(=C/C=C/C(=O)NC(C)(C)CCCc2cccnc2)c2ccc(OC)cc2)cc1            pIC50            7.07
5  COc1ccc(/C(=C/C=C/C(=O)N[C@H](C)CCCc2cccnc2)c2ccccc2)cc1            pIC50            8.70
6  CCC/C(=C\C=C\C(=O)N[C@H](C)CCCc1cccnc1)c1ccc(OC)cc1            pIC50            7.30

API: the following record is the query input.
QUERY: // returns reported pIC50 for input `CCCCC/C(=C/C=C/C(=O)N[C@H](C)CCCc1cccnc1)c1ccc(OC)cc1`
RESULT: 8.00

----------
target: Platelet-activating factor receptor (Canis lupus familiaris); assay: Inhibition of [3H]PAF binding to dog platelets.
Would you kindly list log10 of IC50 for each of these molecules?
Give log10 of IC50, with IC50 taken in nM.

For orientation, consider the following solved cases.
                                smiles_repr  recorded_metric  observed_value
0  COc1cccc(/C(=C\C=C\C(=O)NCCCCc2cccnc2)c2cccc(F)c2)c1    log10 of IC50            1.40
1  CCCC/C(=C\C=C\C(=O)N[C@H](C)CCCc1cccnc1)c1ccc(OC)cc1    log10 of IC50            1.15
2   O=C(C=C(c1ccccc1)c1ccccc1)NCCCCc1cccnc1    log10 of IC50            2.65
3  COc1ccc(/C=C/C=C/C(=O)N[C@H](C)CCCc2cccnc2)cc1    log10 of IC50            1.48
4  COc1ccc(C(=C/C=C/C(=O)N[C@H](C)CCCc2cccnc2)c2ccc(OC)c(OC)c2)cc1OC    log10 of IC50            1.70

Dear colleague, could you please provide log10 of IC50 for the molecules listed below?
1. COc1ccccc1C(=C/C=C/C(=O)NCCCCc1cccnc1)c1ccccc1OC
2. O=C(CCC=C(c1ccccc1)c1ccccc1)NCCCCc1cccnc1
3. COc1ccc(C(=C/C=C/C(=O)Nc2ccc(-c3cccnc3)cc2)c2ccc(OC)cc2)cc1
4. O=C(/C=C/C=C(c1cccc(F)c1)c1cccc(F)c1)NCCCCc1cccnc1
5. CC[C@H](CCCc1cccnc1)NC(=O)/C=C/C=C(c1ccc(OC)cc1)c1ccc(OC)cc1

RESULT:
1. 1.60
2. 2.00
3. 1.00
4. 1.30
5. 2.08

Dear colleague, could you please provide log10 of IC50 for the molecules listed below?
1. Cc1ccc(C(=C/C=C/C(=O)N[C@H](C)CCCc2cccnc2)c2ccc(C)cc2)cc1
2. O=C(/C=C/C=C(c1ccc(F)cc1)c1ccc(F)cc1)NCCCCc1cccnc1
3. COc1ccc(C(=C/C=C/C(=O)Nc2ccc(Cc3cccnc3)cc2)c2ccc(OC)cc2)cc1
4. COc1cccc(C(=C/C=C/C(=O)NCCCCc2cccnc2)c2cccc(OC)c2)c1
5. COc1ccc(/C(=C\C=C\C(=O)N[C@H](C)CCCc2cccnc2)C2CCCCC2)cc1
6. COc1cccc(C(=C/C=C/C(=O)N[C@H](C)CCCc2cccnc2)c2cccc(OC)c2)c1
7. COc1ccc(C(=C/C=C/C(=O)N[C@@H](CCCc2cccnc2)C2CC2)c2ccc(OC)cc2)cc1
8. COc1ccc(/C(=C/C=C/C(=O)N[C@H](C)CCCc2cccnc2)C2CCCCC2)cc1

RESULT:
1: 2.40; 2: 1.60; 3: 2.40; 4: 0.30; 5: 1.30; 6: 1.54; 7: 1.78; 8: 1.30

QUERY: // returns reported log10 of IC50 for input `O=C(CCCCC=C(c1ccccc1)c1ccccc1)NCCCCc1cccnc1`
RESULT: 2.74
